molecular target: DDB1AB-CRBN (Homo sapiens); assay: Lenalidomide displacement assay (Atto565-Lenalidomide fluorescence polarization); format: binding; conditions: Table 1; n=2; 10 nM Atto565-Lenalidomide probe, 100 nM DDB1AB-CRBN; read-out: CRBN Binding IC50
Sequence (Q96SW2 whole entry): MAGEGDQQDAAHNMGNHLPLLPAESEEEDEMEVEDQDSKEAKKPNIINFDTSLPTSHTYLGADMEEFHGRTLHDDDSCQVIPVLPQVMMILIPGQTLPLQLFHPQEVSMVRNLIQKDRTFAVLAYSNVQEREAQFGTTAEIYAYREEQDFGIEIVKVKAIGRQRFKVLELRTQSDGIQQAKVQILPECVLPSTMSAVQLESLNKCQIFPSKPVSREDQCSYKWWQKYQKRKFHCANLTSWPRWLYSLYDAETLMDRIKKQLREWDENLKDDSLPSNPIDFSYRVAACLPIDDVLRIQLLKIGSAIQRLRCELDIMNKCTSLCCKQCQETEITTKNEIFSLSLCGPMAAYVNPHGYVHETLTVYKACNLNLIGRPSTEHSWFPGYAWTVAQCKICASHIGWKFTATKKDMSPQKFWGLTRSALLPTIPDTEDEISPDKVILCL
Experimental Readout: pIC50
The quantity pIC50 is defined as the negative base-10 logarithm of the molar concentration.

Worked set:
{"Molecule": "Cn1cccc(C(=O)NC2CCC(=O)NC2=O)c1=O (centres unmarked)", "Target": "DDB1AB-CRBN (Homo sapiens)", "Recorded Value": 3.64}
{"Molecule": "O=C1CCC(NC(=O)c2cccn(-c3ccccc3)c2=O)C(=O)N1 (centres unmarked)", "Target": "DDB1AB-CRBN (Homo sapiens)", "Recorded Value": 4.14}
{"Molecule": "O=C1CCC(NC(=O)c2ccc[nH]c2=O)C(=O)N1 (centres unmarked)", "Target": "DDB1AB-CRBN (Homo sapiens)", "Recorded Value": 4.28}
{"Molecule": "O=C1CCC(NC(=O)c2ccnc(OCc3ccccc3)n2)C(=O)N1 (centres unmarked)", "Target": "DDB1AB-CRBN (Homo sapiens)", "Recorded Value": 4.54}
{"Molecule": "O=C1CCC(NC(=O)c2cccc3cccnc23)C(=O)N1 (centres unmarked)", "Target": "DDB1AB-CRBN (Homo sapiens)", "Recorded Value": 4.85}

Quick one: pIC50 for O=C1CCC(NC(=O)c2cccc(OCc3ccccc3)n2)C(=O)N1 (centres unmarked) ?
4.26

Consider next the molecule O=C1CCC(NC(=O)c2cccc3nc[nH]c23)C(=O)N1 (centres unmarked) in the same way.
4.42

Now the molecule O=C1CCC(NC(=O)c2cccn(Cc3ccccc3)c2=O)C(=O)N1 (centres unmarked)
4.28

---

Below are Ki values measured for DDB1AB-CRBN (Homo sapiens).
Answer with the figure and its unit, nothing else.

Use the examples below as a reference point.
{"Compound": "Nc1ccc(C(=O)NC2CCC(=O)NC2=O)c2ncccc12 (stereo not drawn)", "Target": "DDB1AB-CRBN (Homo sapiens)", "Ki": "0.8 µM"}
{"Compound": "Nc1cnc2c(C(=O)NC3CCC(=O)NC3=O)cccc2c1 (stereo not drawn)", "Target": "DDB1AB-CRBN (Homo sapiens)", "Ki": "5 µM"}

I am curious: what Ki value has been reported for O=C1CCC(NC(=O)c2cccc(OCc3ccccc3)n2)C(=O)N1 (stereo not drawn) ?
15.7 µM

---

biological target: DDB1AB-CRBN (Homo sapiens); assay: Lenalidomide displacement assay (Atto565-Lenalidomide fluorescence polarization); format: binding; settings: Table 1; n=2; 10 nM Atto565-Lenalidomide probe, 100 nM DDB1AB-CRBN; read-out: CRBN Binding IC50
Overview of recorded IC50 for various compounds
Give the value in µM but do not write µM after it.

Below, each entry is followed by its recorded IC50 result.
{"Compound": "O=C1CCC(NC(=O)c2ccnc(NCc3ccccc3)n2)C(=O)N1 (stereo not drawn)", "IC50, µM": 113}
{"Compound": "O=C1CCC(NC(=O)c2cccc(OCc3ccc(CN4CCOCC4)cc3)n2)C(=O)N1 (stereo not drawn)", "IC50, µM": 40}

// lookup IC50 for Nc1cnc2c(C(=O)NC3CCC(=O)NC3=O)cccc2c1 (stereo not drawn)
17.5
